Taken from patent US20130005988A1.

- target-or-test-system: TAAR1 (Mus musculus)
- Construct: expressed in transfected cells; host or cells: HEK293 (ATCC #CRL-1573), stably transfected with pIRESneo2 expression plasmid
- Sequence (Q923Y8 whole entry): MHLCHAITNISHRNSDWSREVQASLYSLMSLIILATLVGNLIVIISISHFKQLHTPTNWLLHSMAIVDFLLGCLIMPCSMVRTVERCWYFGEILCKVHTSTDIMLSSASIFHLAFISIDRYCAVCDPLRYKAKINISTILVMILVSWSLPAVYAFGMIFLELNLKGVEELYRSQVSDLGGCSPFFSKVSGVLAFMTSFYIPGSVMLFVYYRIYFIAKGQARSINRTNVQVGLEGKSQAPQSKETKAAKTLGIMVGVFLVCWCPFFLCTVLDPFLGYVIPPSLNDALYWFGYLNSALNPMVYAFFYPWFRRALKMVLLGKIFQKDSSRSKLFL
- procedure-details: Radioligand binding on membranes of HEK293 cells stably expressing TAAR1
- condition-info: radioligand [3H]-rac-2-(1,2,3,4-tetrahydro-1-naphthyl)-2-imidazoline at 60 nM, 4° C., 30 min
value-type: Ki (µM)

Examples with answers:
# return recorded Ki for entry CCN(C[C@@H]1CCCN1)c1ccc(Cl)c(Cl)c1 0.0028

# return recorded Ki for entry CCN(C[C@@H]1CCN1)c1ccccc1 0.0092

P: CCN(C[C@@H]1CCN1)c1cccc(Br)c1
Q: COc1cc(N(C)C[C@@H]2CCCN2)ccc1Cl
Compare the recorded Ki of P and Q ; state which is larger. Respond with the label that goes with your answer. Q

1: CCN(C[C@H]1CCCN1)c1cccc(Oc2ccccc2)c1
2: CN(C[C@@H]1CCN1)c1ccc(Cl)cc1
Hey, between 1 and 2 which has a smaller measured Ki? Respond with the label that goes with your answer. 1

1: COc1cc(N(C[C@@H]2CCCN2)C(C)C)ccc1Cl
2: CCN(C[C@@H]1CCN1)c1cccc(OC)c1
3: CC(C)N(C[C@@H]1CCCN1)c1ccc(Cl)c(Cl)c1
4: CCN(C[C@@H]1CCCN1)c1ccc(Cl)c(OC)c1
5: CC(C)N(C[C@@H]1CCN1)c1ccc(Cl)cc1
Sort the compounds on Ki; start with the lowest figure. Could you list the labels in the order requested? 3, 4, 2, 1, 5

###

- target-or-test-system: UniProtKB Q923Y8
value-type: Kd (nM)
Reply numerically in nM, unit not repeated.

Write Kd of c1ccc2c(c1)CCCC2C1=NCCN1 (racemic) ; system used: UniProtKB Q923Y8 60
